Attribution: the supplement of paper PMC3414501

test system: S. cerevisiae NKY1551 his4x/his4B, sporulating; assay: HIS4 meiotic recombination assay sensitivity score (z-score vs DMSO controls); higher = stronger inhibition of sporulation/recombination, active = hit call of the paper;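 further: active if sensitivity score above 5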
Structures can show the parent of a compound that is named as a salt.
REPORTED_METRIC: HIS4 meiotic recombination assay sensitivity score
Give bare numbers.

COMPOUND	TARGET_DESC	OBSERVED_MEASUREMENT
COc1ccccc1N1CCN(CC(O)COc2cccc3ccccc23)CC1 (centres undefined) [Naftopidil] (stock concentration (mM, diluted 1:100): 10)	S. cerevisiae NKY1551 his4x/his4B, sporulating	5.23
COc1cccc2c1C(=O)c1c(O)c3c(c(O)c1C2=O)C[C@@](O)(C(=O)CO)C[C@@H]3O[C@H]1C[C@H](N)[C@H](O)[C@H](C)O1 [Doxorubicin hydrochloride] (stock concentration (mM, diluted 1:100): 9.4)	S. cerevisiae NKY1551 his4x/his4B, sporulating	-0.73
CN1CCCCC1CCN1c2ccccc2Sc2ccc([S+](C)[O-])cc21 (centres undefined) [Mesoridazine] (stock concentration (mM, diluted 1:100): 10)	S. cerevisiae NKY1551 his4x/his4B, sporulating	-1.59

Could you now consider this next compound?
Query: Please supply the value of reported HIS4 meiotic recombination assay sensitivity score for the item CCCN1CCCC[C@H]1C(=O)Nc1c(C)cccc1C [Ropivacaine hydrochloride] (stock concentration (mM, diluted 1:100): 7.7)
Response: 2.62
